TEST NAME: Selectivity index, ratio of IC50 for equine serum BChE to IC50 for AChE (unknown origin)

# COMPOUND, Ratio IC50
data = [
    ("O=C(CCCCCCCCc1ccc(O)c(O)c1)c1c(O)ccc(C(CCCCCCCCc2ccc(O)cc2)c2c(O)cccc2O)c1O (stereo unspecified)", 0.41),
    ("O=C(CCCCCCCCc1ccc(O)cc1)c1c(O)cc(O)cc1O", 1.03),
    ("O=C(CCCCCCCCc1ccc(O)cc1)c1c(O)cccc1O [MALABARICONE B]", 0.96),
    ("O=C(CCCCCCCCc1ccccc1)c1c(O)cccc1O [MALABARICONE A]", 33),
    ("O=C(CCCCCCCCc1ccc(O)c(O)c1)c1c(O)cccc1O [MALABARICONE C]", 1.44),
    ("O=C(CCCCCCCCc1ccc(O)c(O)c1)c1c(O)ccc(C(CCCCCCCCc2ccc(O)c(O)c2)c2c(O)cccc2O)c1O (stereo unspecified)", 0.83),
]
